target: TcPINK1 (Tribolium castaneum); construct: TcPINK1 (121–570) ampicillin-resistant plasmids were co-expressed in BL21 DE3 E. coli with lambda phosphatase; GST (N, cleaved yes); assay: Kinase Glo luminescence assay (ATP hydrolysis) IC50 determination; conditions: 1 µM unphosphorylated TcPINK1, 10 µM ATP, 5 min, 30 °C
Sequence (D6WMX4 121-570): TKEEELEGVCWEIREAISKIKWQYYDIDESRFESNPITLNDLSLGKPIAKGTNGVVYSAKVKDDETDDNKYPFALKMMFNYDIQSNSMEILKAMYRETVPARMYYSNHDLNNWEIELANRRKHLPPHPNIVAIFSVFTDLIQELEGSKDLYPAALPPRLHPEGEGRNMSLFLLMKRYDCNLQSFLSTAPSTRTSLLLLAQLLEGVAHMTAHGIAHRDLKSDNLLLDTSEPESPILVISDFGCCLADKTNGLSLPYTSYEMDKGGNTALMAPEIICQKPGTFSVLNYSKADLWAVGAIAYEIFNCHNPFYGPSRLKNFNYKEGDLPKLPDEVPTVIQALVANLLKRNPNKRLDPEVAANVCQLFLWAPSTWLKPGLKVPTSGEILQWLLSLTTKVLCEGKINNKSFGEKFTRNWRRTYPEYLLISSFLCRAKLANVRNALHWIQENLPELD
Field: IC50. Provide a value for each of the compounds that follow.
One number for each entry, in µM.

Some solved cases for reference:
| Smiles Input | Target System | Unit Annotation | IC50 |
| --- | --- | --- | --- |
| Cc1nc(N)sc1-c1ccnc(Nc2ccc(N3CCOCC3)cc2)n1 | TcPINK1 (Tribolium castaneum) | µM | 65.4 |
| Cc1cccc(Nc2nc(N[C@@H]3CCCC[C@@H]3N)ncc2C(N)=O)c1 | TcPINK1 (Tribolium castaneum) | µM | 2.5 |
| Cn1cc(-c2nc(N[C@@H]3CCCC[C@@H]3N)c(F)c3c2C(=O)NC3)cn1 | TcPINK1 (Tribolium castaneum) | µM | 6.4 |

Kindly consider the entry below.
Given the compound Nc1nc(Nc2ccc(S(N)(=O)=O)cc2)nn1C(=O)c1c(F)cccc1F , what is its reported IC50? 27.6
